Taken from paper PMC3936774.

Target: Sa Hfq F25W (Staphylococcus aureus, UniProt A0A0H3JV59 1-77, F25W)
Assay: fluorescence polarization
MEASUREMENT TYPE: pKd
A value of pKd is the negative decimal logarithm of a concentration given in moles per litre.

Q) pKd for UUUUUU (ssRNA) [U6 (fluorescein)] ?
A) 7.38
